System: K4 kissing-loop RNA reporter
Assay: apparent KD of K4 kissing-loop reporter; higher = weaker reporter binding
Conditions: Eterna round: R107; input ligand: tryptophan 2.4 mM
measured-property: apparent KD of K4 kissing-loop reporter (µM)
Note: unit µM is implicit; provide only the numeric part.

-- ask Using the record for GGGUGGCAGACGGCCGCCACUCUUAGCAGCCAGUGAGUGAUGUUCGUGGCGGAGUGAUGUUCCUAGAGGACCGGGUUUGUUGUUC [Same State Tryptophan B GF 20] , report its apparent KD of K4 kissing-loop reporter.
-- reply 0.318

-- ask Using the record for UUUAUAAUGUCGGCCGCCACUGGAUUAAUAUUUGUAUAAUCUAGUUCUGAGUGAUGUUUAGAGUCCAGGACCGGGACAUUUGUUA [#10 K4 Tryptophan B Exclusion] , report its apparent KD of K4 kissing-loop reporter.
-- reply 0.52

-- ask Using the record for UGUACAUGUCAGCGAGUGAUGUUCGACGAUACCAGACUCGAUAGAGUCCCUUGGCAGCGUAACGCAUGCCAAACUGGCAUGUACU [#SwitchBubble 9 #K4Early] , report its apparent KD of K4 kissing-loop reporter.
-- reply 0.773

-- ask Using the record for ACACUAUCGUCAUAGACGGUAGUGAACACACAGGAUAUGAGUGAUGUUAGAAGGGUGUAAGACUGUAUCGAAUAGAUACAGUCAA [FmnA 7 #K4BetweenAptamer #OpenEnded] , report its apparent KD of K4 kissing-loop reporter.
-- reply 0.19

====

System: K4 kissing-loop RNA reporter;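 also: bound reporter read as fluorescence of individual clusters on recovered sequencing chips by microscopy, with normalized cluster intensities fitted with a binding model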
Assay: apparent KD of K4 kissing-loop reporter; higher = weaker reporter binding
Conditions: Eterna round: R107; input ligand: tryptophan 2.4 mM
measured-property: apparent KD of K4 kissing-loop reporter (nM)
Note: unit nM is implicit; provide only the numeric part.

-- ask Using the record for AGAUAGGGCUGAAGGAGCGUCGGAAAAGAAAAGAUGAAAUCCAGUGAUGUUGGAUAAAUCCGACAGGUAGGUCGCAGUUUUAUGA [#01 K4 Arginine B Same State] , report its apparent KD of K4 kissing-loop reporter.
-- reply 120

-- ask Using the record for UUACGCGGCAUAGAUACCAGCAAUGCAGGAUAGGUCAAGAGUGAUGUUCUGAUACUUGGGUGCCCUUGGCAGCUAGACGAUAACA [theeternabot_sameState_KL_Theo_B_46] , report its apparent KD of K4 kissing-loop reporter.
-- reply 308

-- ask Using the record for UAUCGAGUGAUGUUCGAUGUAGUCCAUUCAGAGGAUAUAGGAUUGACUAGAAGGCUGAAACCUUCUUCGAGUGAUGUUCGAGGAU [Same State FMN A GF4] , report its apparent KD of K4 kissing-loop reporter.
-- reply 47.4

====

Kindly supply the reported apparent KD of MS2 coat protein values for the records listed here.
System: MS2 coat protein
Test: apparent KD of MS2 coat protein; designed switch direction (-1 OFF switch, 1 ON switch): 1; higher = weaker reporter binding
Conditions: input ligand: none
Note: unit nM is implicit; provide only the numeric part.

-- ask Using the record for GGCCUGUAGACAGGAUAUGGGAAAGGAAGUGUACCAGAAGGGUCAAAGAUAUAGGUGGACAUGAGGAUCACCCAUGUAAUUAAC [PowerStrip SSNG 1.21] (Eterna round: R96, puzzle: Same State NG 1) , report its apparent KD of MS2 coat protein.
-- reply 105

-- ask Using the record for AAAAUAAAUGCGAAAAUUAACCGCAACUGACAUGAGGAUCACCCAUGUGCUUCAAGCUCAGGCAUCUCUUAUCGUCA [Maares] (Eterna round: R96, puzzle: Sensor for hsa-mir-208a) , report its apparent KD of MS2 coat protein.
-- reply 105

-- ask Using the record for UUUUUUAUCGUAGGAUAUAGGUUGAAUAAUAGACUAGAAGGACGUCACAUGAGGAUCACCCAUGUUUUUUAAGUGUCGAAGUGU [JR_SSNG1_Sub040] (Eterna round: R96, puzzle: Same State NG 1) , report its apparent KD of MS2 coat protein.
-- reply 29.4

-- ask Using the record for GCUCGAUGAGCUGUCUACAUGAGGAUCACCCAUGUAGAUGGGCAGGAUAUUUACGUGCUUUAUGUAGAGAAGGGCCCAUCGAGC [SameState NG3 #78] (Eterna round: R96, puzzle: Same State NG 3) , report its apparent KD of MS2 coat protein.
-- reply 169

-- ask Using the record for UUAAUGAAGUAAGGAUAUACAUGAGGAUUUCUCGUAGAAGGUACUAUACAUGAGGAUCACCCAUGUGCCGGUCCGUAGACUGGA [JL SSNG1 1.05] (Eterna round: R96, puzzle: Same State NG 1) , report its apparent KD of MS2 coat protein.
-- reply 607
